TGT: T1, 006 PSMA Fab
T1 construct: In the phage ELISA the PSMA Fab was biotinylated and captured on neutravidin coated plates; also called Anti-PSMA Fab
ASSAY_NOTES: clonal phage ELISA; biotinylated PSMA Fab captured on neutravidin plate, wells pre-incubated with PSMA antigen as competitor; bound phage detected with anti-M13 HRP
Grouping key: Phage binding ELISA signal, Anti-PSMA Fab with PSMA antigen. Bins: lower (below 0.07), middle (0.07 to below 0.08), upper (0.08 or more)

Qu. Which bin should I file TQVKCIPLWMCDGF [Phage-3947] under?
Ans. lower

Qu. Lookup PLTSCVPQWMCYGF [Phage-3940]
Ans. upper

Qu. Lookup LTVYCTPEWMCSGW [Phage-3948]
Ans. middle

Qu. Lookup AVHMCAPSWMCSGF [Phage-3952]
Ans. upper

Qu. Lookup DQVMCIPRWMCEGF [Phage-3943]
Ans. lower

Qu. Lookup TVRSCTPPWMCEGF [Phage-3951]
Ans. upper

Qu. Lookup GDIQCRPLWMCDGL [Phage-3942]
Ans. upper

Qu. Lookup DSLVCQPRWMCVGF [Phage-3945]
Ans. lower

Qu. Lookup ILPRCEPYWMCTGL [Phage-3950]
Ans. lower

Qu. Lookup STMSCVPSWMCLGF [Phage-3946]
Ans. lower

Qu. Lookup YARECIPQWMCGGF [Phage-3939]
Ans. middle
